Quick list: Exch I (%) per entry.
Target desc: T1, HLA-A*02:01 (human, biotinylated heavy chain)
T1 construct: Conditional HLA class I complex as for m1
Measurement protocol: UV peptide exchange; HLA class I ELISA;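 also: conditional HLA class I complexes UV-irradiated with peptide, captured on streptavidin wells, intact complex read as HRP anti-B2M absorbance, higher means more binding, control irradiated without rescue peptide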

Binder	Exch I (%)
SLIAMDSAI [Peptide 3, 9-mer SLIAMDSAI derived from FUS1 (SEQ ID NO: 1001)]	57.3
YHREKQLIA [Peptide 6, 9-mer YHREKQLIA derived from P22 (SEQ ID NO: 1003)]	16.3
LYHREKQLI [Peptide 5, 9-mer LYHREKQLI derived from P22 (SEQ ID NO: 1003)]	11.3
AMDSAITLW [Peptide 1, 9-mer AMDSAITLW derived from FUS1 (SEQ ID NO: 1001)]	8
LIAMDSAIT [Peptide 10, 9-mer LIAMDSAIT derived from P22 (SEQ ID NO: 1003)]	6.7
IAMDSAITL [Peptide 2, 9-mer IAMDSAITL derived from FUS1 (SEQ ID NO: 1001)]	81.1
KQLIAMDSA [Peptide 9, 9-mer KQLIAMDSA derived from P22 (SEQ ID NO: 1003)]	6.9
HREKQLIAM [Peptide 7, 9-mer HREKQLIAM derived from P22 (SEQ ID NO: 1003)]	7.9
SLYHREKQL [Peptide 4, 9-mer SLYHREKQL derived from P22 (SEQ ID NO: 1003)]	82.8
